Assign Biochem EGFR % Inhibition (P.167) to each entry below.
# System: EGFR (Homo sapiens, UniProt P00533)
# Construct: endogenous in cells; host or cells: A431 cells (lysate, captured with SUMO1 anti-EGFR antibody)
# Sequence (P00533 25-1210): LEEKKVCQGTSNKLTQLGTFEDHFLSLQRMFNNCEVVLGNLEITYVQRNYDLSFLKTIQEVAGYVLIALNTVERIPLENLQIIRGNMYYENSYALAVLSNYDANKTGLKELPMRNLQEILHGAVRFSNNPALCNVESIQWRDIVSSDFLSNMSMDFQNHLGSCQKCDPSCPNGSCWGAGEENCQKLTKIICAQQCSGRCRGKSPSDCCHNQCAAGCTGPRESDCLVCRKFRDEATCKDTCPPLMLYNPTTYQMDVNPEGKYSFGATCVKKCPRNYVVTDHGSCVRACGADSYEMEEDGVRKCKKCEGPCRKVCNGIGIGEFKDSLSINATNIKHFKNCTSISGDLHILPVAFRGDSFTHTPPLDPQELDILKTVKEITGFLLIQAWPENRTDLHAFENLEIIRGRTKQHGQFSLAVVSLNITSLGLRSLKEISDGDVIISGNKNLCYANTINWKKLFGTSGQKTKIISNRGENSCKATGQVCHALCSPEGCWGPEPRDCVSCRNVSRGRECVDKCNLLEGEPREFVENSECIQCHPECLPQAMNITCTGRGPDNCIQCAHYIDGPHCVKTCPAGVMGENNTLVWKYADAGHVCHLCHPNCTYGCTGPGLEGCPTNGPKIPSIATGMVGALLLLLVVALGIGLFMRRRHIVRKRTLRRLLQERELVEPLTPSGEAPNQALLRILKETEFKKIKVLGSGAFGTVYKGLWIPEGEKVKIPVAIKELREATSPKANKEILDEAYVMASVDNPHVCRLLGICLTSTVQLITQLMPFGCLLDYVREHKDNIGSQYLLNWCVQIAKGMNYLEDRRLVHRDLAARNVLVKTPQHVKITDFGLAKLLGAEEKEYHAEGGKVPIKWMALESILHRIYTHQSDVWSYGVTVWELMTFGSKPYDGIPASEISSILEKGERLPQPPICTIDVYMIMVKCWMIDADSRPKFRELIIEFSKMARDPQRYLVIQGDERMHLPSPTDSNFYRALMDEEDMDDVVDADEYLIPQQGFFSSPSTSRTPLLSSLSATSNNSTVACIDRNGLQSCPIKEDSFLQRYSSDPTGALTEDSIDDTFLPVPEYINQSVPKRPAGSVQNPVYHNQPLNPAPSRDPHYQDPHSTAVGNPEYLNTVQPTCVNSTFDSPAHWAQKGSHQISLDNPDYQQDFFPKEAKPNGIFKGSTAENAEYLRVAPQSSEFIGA
# Assay Procedure: Biochemical EGFR Assay
# Parameters: concentration or dose not given beside the values
# Experimental Setup: protocol P.167
Number only, in %; omit the unit.

Exercise: Param item = O=C1Nc2ccc(I)cc2C1=Cc1cccc(OCc2ccccc2)c1 [10739/B03] ; retrieve measured Biochem EGFR % Inhibition (P.167).
Key: 9.6

Exercise: What value of measured Biochem EGFR % Inhibition (P.167) is listed for Cc1[nH]c2ccccc2c1C=C1C(=O)Nc2ccc(I)cc21 [10740/B08] ?
Key: 34.8

Exercise: I would be grateful if you could share the reported Biochem EGFR % Inhibition (P.167) for Cc1ccc(C=C2C(=O)Nc3ccc(S(=O)(=O)N4CCOCC4)cc32)c(C)c1 [10737/F03] .
Key: −3.1

Exercise: Which Biochem EGFR % Inhibition (P.167) is listed for O=C1Nc2c(Br)cc(Br)cc2C1=Cc1ccc(CO)o1 [10739/A11] ?
Key: −8.7

Exercise: Which value of Biochem EGFR % Inhibition (P.167) has been reported for CNS(=O)(=O)c1ccc2c(c1)C(=Cc1ccc(C)cc1C)C(=O)N2 [10737/D03] in the records?
Key: −21.5

Exercise: Fill in the blank: the reported Biochem EGFR % Inhibition (P.167) of Cc1[nH]c2ccccc2c1C=C1C(=O)Nc2ccc(S(=O)(=O)N3CCOCC3)cc21 [10740/F08] is ____.
Key: 5.0

Exercise: // Biochem EGFR % Inhibition (P.167) lookup, key: COc1ccc(C=C2C(=O)Nc3ccc(I)cc32)cc1O [10738/B04]
Key: 51.2

Exercise: Return reported Biochem EGFR % Inhibition (P.167); argument: Cc1c(Br)cc(Br)c2c1C(=Cc1ccc(O)cc1Cl)C(=O)N2 [10739/H06]
Key: −22.1

Exercise: # query: Biochem EGFR % Inhibition (P.167) of entry Cc1c(Br)cc(Br)c2c1C(=Cc1ccc(Cl)cc1)C(=O)N2 [10736/H02]
Key: −32.0

Exercise: Could you share which Biochem EGFR % Inhibition (P.167) value was measured for CCCOc1ccc(C=C2C(=O)Nc3ccc(S(=O)(=O)NC)cc32)cc1 [10738/D11] ?
Key: −13.1

Exercise: Need Biochem EGFR % Inhibition (P.167) of Cc1c(Br)ccc2c1C(=Cc1ccc(Oc3ccccc3)cc1)C(=O)N2 [10737/C09] , thanks.
Key: 13.0

Exercise: # lookup: Biochem EGFR % Inhibition (P.167) of Cc1c(Br)cc(Br)c2c1C(=Cc1cccc(Oc3cccc(C(F)(F)F)c3)c1)C(=O)N2 [10737/H11]
Key: 4.5

Exercise: I am curious: what Biochem EGFR % Inhibition (P.167) value has been reported for O=C1Nc2ccc(I)cc2C1=Cc1ccc2ccccc2n1 [10740/B06] ?
Key: 44.4

Exercise: // query Biochem EGFR % Inhibition (P.167) value for entry Cc1c(Br)ccc2c1C(=Cc1ccc(C(C)C)cc1)C(=O)N2 [10738/C10]
Key: 5.2

Exercise: Please report the recorded Biochem EGFR % Inhibition (P.167) for CCc1ccc(C=C2C(=O)Nc3ccc(CCCl)cc32)cc1 [10736/G09] .
Key: 12.4

Exercise: What value of Biochem EGFR % Inhibition (P.167) has been reported for the following molecule? COc1ccc(Oc2cccc(C=C3C(=O)Nc4c(Br)cc(Br)c(C)c43)c2)cc1 [10739/H08]
Key: −28.5

Exercise: Quick one: Biochem EGFR % Inhibition (P.167) of O=C1Nc2ccc(S(=O)(=O)Nc3ccc(C(F)(F)F)cc3)cc2C1=Cc1ccoc1 [10739/E10] ?
Key: 17.5

Exercise: Need Biochem EGFR % Inhibition (P.167) of CCOc1ccc(C=C2C(=O)Nc3ccc(Br)c(C)c32)cc1 [10737/C02] , thanks.
Key: −22.0

Exercise: Entry O=C1Nc2ccc(I)cc2C1=Cc1cc(Br)cs1 [10740/B10] : reported Biochem EGFR % Inhibition (P.167) = ?
Key: 39.9

Exercise: Give the measured Biochem EGFR % Inhibition (P.167) of CNS(=O)(=O)c1ccc2c(c1)C(=Cc1cccc(Oc3ccc(OC)cc3)c1)C(=O)N2 [10739/D08] .
Key: −16.8

Exercise: What value of Biochem EGFR % Inhibition (P.167) has been recorded for this entry: O=C1Nc2ccc(I)cc2C1=Cc1ccc2ccccc2c1 [10737/B08]
Key: 15.4

Exercise: Endpoint output: Biochem EGFR % Inhibition (P.167) of O=C1Nc2ccc(I)cc2C1=Cc1ccc(O)cc1Cl [10739/B06] . Value?
Key: 9.2

Exercise: I am curious: what Biochem EGFR % Inhibition (P.167) value has been reported for Cc1c(Br)ccc2c1C(=Cc1ccc3ccccc3n1)C(=O)N2 [10740/C06] ?
Key: 18.2

Exercise: Any idea what Biochem EGFR % Inhibition (P.167) was measured for CNS(=O)(=O)c1ccc2c(c1)C(=Cc1cccc(Oc3cccc(C(F)(F)F)c3)c1)C(=O)N2 [10737/D11] ?
Key: −2.3

Exercise: Entry COc1ccc(C=C2C(=O)Nc3ccc(S(=O)(=O)N4CCOCC4)cc32)cc1C [10739/F02] has what Biochem EGFR % Inhibition (P.167)?
Key: −3.6

Exercise: # get_value(readout='Biochem EGFR % Inhibition (P.167)', item= O=C1Nc2ccc(S(=O)(=O)N3CCOCC3)cc2C1=Cc1ccc(Oc2ccccc2)cc1 [10737/F09] )
Key: 23.5

Exercise: What Biochem EGFR % Inhibition (P.167) value was documented for this molecule, O=C1Nc2ccc(S(=O)(=O)N3CCOCC3)cc2C1=Cc1ccnc2ccccc12 [10740/F03] ?
Key: 16.8

Exercise: Reported Biochem EGFR % Inhibition (P.167) for Cc1c(Br)cc(Br)c2c1C(=Cc1cccc(OCc3ccccc3)c1)C(=O)N2 [10739/H03] : what is it?
Key: 10.0

Exercise: What does the record list as Biochem EGFR % Inhibition (P.167) for O=C1Nc2ccc(S(=O)(=O)N3CCOCC3)cc2C1=Cc1cc(O)cc(O)c1 [10738/F07] ?
Key: 9.1

Exercise: Entry CNS(=O)(=O)c1ccc2c(c1)C(=Cc1ccc3ccccc3n1)C(=O)N2 [10740/D06] has what Biochem EGFR % Inhibition (P.167)?
Key: 5.8

Exercise: // lookup Biochem EGFR % Inhibition (P.167) for Cn1cc(C=C2C(=O)Nc3ccc(I)cc32)c2ccccc21 [10740/B07]
Key: 48.9

Exercise: Look up Biochem EGFR % Inhibition (P.167): COc1ccc(C=C2C(=O)Nc3ccc(Br)c(C)c32)cc1C [10739/C02]
Key: −1.7

Exercise: Quick check: Biochem EGFR % Inhibition (P.167) of O=C1Nc2c(Br)cc(Br)cc2C1=Cc1ccsc1 [10740/A05] ?
Key: 30.3

Exercise: Please report the recorded Biochem EGFR % Inhibition (P.167) for Cc1c(Br)ccc2c1C(=Cc1cccc(Oc3ccc(C(C)(C)C)cc3)c1)C(=O)N2 [10737/C10] .
Key: −15.6

Exercise: Which Biochem EGFR % Inhibition (P.167) is listed for COC1CCCN1C=C1C(=O)Nc2ccc(I)cc21 (racemic) [10740/B04] ?
Key: 36.9

Exercise: Please look up its Biochem EGFR % Inhibition (P.167): Cc1ccc(Oc2cccc(C=C3C(=O)Nc4ccc(I)cc43)c2)cc1 [10738/B02]
Key: −24.4

Exercise: Please report the recorded Biochem EGFR % Inhibition (P.167) for CCCCOc1ccc(C=C2C(=O)Nc3ccc(Br)c(C)c32)cc1 [10740/C11] .
Key: 18.7
